biological target: [IKZF2 ZF2]-[compound]-[CRBN/DDB1] ternary complex (Homo sapiens, UniProt Q96SW2+Q9UKS7); construct: IKZF2 ZF2; test: AlphaLISA assay for off-target recruitment detection, IKZF2 ZF2; type: binding; settings: 1 μM compound; normalized to Helios modulator; read-out: Normalized ternary complex response, IKZF2 ZF2
Sequence (Q9UKS7 140-162 limits assumed): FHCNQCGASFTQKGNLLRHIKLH
Sequence (Q96SW2 whole entry): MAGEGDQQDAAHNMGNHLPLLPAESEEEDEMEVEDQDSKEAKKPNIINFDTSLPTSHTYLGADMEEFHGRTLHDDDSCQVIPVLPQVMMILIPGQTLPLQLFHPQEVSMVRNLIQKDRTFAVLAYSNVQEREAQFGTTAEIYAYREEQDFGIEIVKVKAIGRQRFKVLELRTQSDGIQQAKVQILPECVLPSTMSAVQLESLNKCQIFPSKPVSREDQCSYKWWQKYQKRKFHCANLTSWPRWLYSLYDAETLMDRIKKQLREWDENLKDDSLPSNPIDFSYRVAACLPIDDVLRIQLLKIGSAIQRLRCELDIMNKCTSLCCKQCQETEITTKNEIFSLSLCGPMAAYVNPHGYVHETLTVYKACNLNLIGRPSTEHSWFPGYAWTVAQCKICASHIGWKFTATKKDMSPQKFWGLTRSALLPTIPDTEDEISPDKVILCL
Sequence (Q16531 whole entry partner): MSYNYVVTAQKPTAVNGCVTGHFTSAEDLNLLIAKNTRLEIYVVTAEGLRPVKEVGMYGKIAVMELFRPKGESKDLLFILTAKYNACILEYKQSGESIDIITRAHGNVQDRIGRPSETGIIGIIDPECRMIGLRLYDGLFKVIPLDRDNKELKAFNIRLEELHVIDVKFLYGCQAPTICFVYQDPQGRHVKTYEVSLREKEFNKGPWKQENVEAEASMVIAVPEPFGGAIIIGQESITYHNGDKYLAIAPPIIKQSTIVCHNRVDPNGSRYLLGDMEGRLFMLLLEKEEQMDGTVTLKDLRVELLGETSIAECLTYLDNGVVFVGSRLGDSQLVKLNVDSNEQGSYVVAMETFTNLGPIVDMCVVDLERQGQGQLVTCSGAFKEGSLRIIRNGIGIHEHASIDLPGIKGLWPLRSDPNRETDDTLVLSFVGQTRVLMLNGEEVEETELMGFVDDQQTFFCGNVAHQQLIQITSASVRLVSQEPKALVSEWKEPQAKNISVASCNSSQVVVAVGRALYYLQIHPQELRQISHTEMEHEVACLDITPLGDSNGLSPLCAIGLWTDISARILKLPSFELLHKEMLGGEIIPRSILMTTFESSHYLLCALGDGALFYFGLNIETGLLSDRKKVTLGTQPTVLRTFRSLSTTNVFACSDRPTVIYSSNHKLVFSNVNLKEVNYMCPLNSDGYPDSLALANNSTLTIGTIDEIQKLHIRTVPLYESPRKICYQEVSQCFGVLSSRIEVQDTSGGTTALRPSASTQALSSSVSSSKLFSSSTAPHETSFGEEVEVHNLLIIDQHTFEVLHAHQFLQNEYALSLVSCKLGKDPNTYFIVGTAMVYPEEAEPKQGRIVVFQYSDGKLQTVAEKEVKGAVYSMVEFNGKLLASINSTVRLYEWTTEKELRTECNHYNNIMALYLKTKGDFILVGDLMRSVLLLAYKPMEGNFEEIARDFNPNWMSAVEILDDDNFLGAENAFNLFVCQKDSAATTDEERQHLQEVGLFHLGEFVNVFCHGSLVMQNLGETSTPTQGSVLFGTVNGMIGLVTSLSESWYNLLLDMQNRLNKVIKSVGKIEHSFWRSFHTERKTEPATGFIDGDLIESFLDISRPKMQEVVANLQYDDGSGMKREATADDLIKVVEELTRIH
Catalogue of molecules with associated activation at 1 µM

Past entries and their recorded results:
{"molecule": "Cc1nc2cc(COC(=O)Nc3ccc(C(C)(C)C)c(Cl)c3)ccc2cc1C1CCC(=O)NC1=O (centres unmarked)", "activation at 1 µM": "< 10%"}
{"molecule": "Cc1nc2cc(COC(=O)NC3CCN(c4ccccc4)CC3)ccc2cc1C1CCC(=O)NC1=O (centres unmarked)", "activation at 1 µM": "< 10%"}
{"molecule": "COc1ccc(NC(=O)OCc2ccc3cc(C4CCC(=O)NC4=O)c(C)nc3c2)nn1 (centres unmarked)", "activation at 1 µM": "< 10%"}

-- ask // map Cc1nc2cc(COC(=O)Nc3cc(C(F)(F)F)n[nH]3)ccc2cc1C1CCC(=O)NC1=O (centres unmarked) to recorded activation at 1 µM (system: [IKZF2 ZF2]-[compound]-[CRBN/DDB1] ternary complex (Homo sapiens, UniProt Q96SW2+Q9UKS7))
-- reply < 10%

-- ask Form field: activation at 1 µM recorded for Cc1ccc(NC(=O)OCc2ccc3nc(C)c(N4CCC(=O)NC4=O)cc3c2)cc1Cl with [IKZF2 ZF2]-[compound]-[CRBN/DDB1] ternary complex (Homo sapiens, UniProt Q96SW2+Q9UKS7) (enter value)
-- reply < 10%

-- ask Param readout= activation at 1 µM; system= [IKZF2 ZF2]-[compound]-[CRBN/DDB1] ternary complex (Homo sapiens, UniProt Q96SW2+Q9UKS7); entry= Cc1nc2cc(COC(=O)Nc3cc(C(C)(C)C)n[nH]3)ccc2cc1C1CCC(=O)NC1=O (centres unmarked) ; returns value.
-- reply < 10%

-- ask Given the entry Cc1nc2cc(OC(C)C(=O)NC3CCCCC3)ccc2cc1C1CCC(=O)NC1=O (centres unmarked) , what activation at 1 µM was observed with [IKZF2 ZF2]-[compound]-[CRBN/DDB1] ternary complex (Homo sapiens, UniProt Q96SW2+Q9UKS7)?
-- reply < 10%

-- ask Please provide the recorded activation at 1 µM for Cc1nc2cc(COC(=O)Nc3cc(C(C)(C)C)no3)ccc2cc1C1CCC(=O)NC1=O (centres unmarked) , tested on [IKZF2 ZF2]-[compound]-[CRBN/DDB1] ternary complex (Homo sapiens, UniProt Q96SW2+Q9UKS7).
-- reply < 10%

----------
Biological target: [IKZF2 ZF2]-[compound]-[CRBN/DDB1] ternary complex (Homo sapiens, UniProt Q96SW2+Q9UKS7)
Construct: IKZF2 ZF2
Assay: AlphaLISA assay for off-target recruitment detection, IKZF2 ZF2
Type: binding
Conditions: 1 μM compound; normalized to Helios modulator; read-out: Normalized ternary complex response, IKZF2 ZF2
Experimental: The ability of the molecular glue compounds of the invention to mediate the proximity of CRBN with its known neo-substrates (shown in Table 3) was assessed using AlphaLISA to detect the formation of a [neo-substrate]-[compound of formula (I)]-[CRBN/DDB1] ternary complex. […] The read-out was performed with PerkinElmer Enspire Multimode Plate Reader (method for AlphaLISA 384-well low volume, Filterset: λexc=680 nm, λem=615 nm). […]
quantityMeasured: activation at 1 µM

Some compounds with recorded activation at 1 µM:
{"compound": "Cc1nc2cc(COC(=O)Nc3cc(OC(F)(F)F)ccc3F)ccc2cc1C1CCC(=O)NC1=O (stereo not shown)", "assayedSystem": "[IKZF2 ZF2]-[compound]-[CRBN/DDB1] ternary complex (Homo sapiens, UniProt Q96SW2+Q9UKS7)", "valueReported": "< 10%"}
{"compound": "Cc1ccc(NC(=O)OCc2ccc3nc(C)c(C4CCC(=O)NC4=O)cc3c2)cc1Cl (stereo not shown)", "assayedSystem": "[IKZF2 ZF2]-[compound]-[CRBN/DDB1] ternary complex (Homo sapiens, UniProt Q96SW2+Q9UKS7)", "valueReported": "10 to 25%"}
{"compound": "Cc1ccc(NC(=O)OCc2ccc3c(C)c(C4CCC(=O)NC4=O)c(C)nc3c2)cc1Cl (stereo not shown)", "assayedSystem": "[IKZF2 ZF2]-[compound]-[CRBN/DDB1] ternary complex (Homo sapiens, UniProt Q96SW2+Q9UKS7)", "valueReported": "< 10%"}

Let us examine a further case.
-- ask Look at this compound and give its reported activation at 1 µM. COc1cnc(NC(=O)OCc2ccc3cc(C4CCC(=O)NC4=O)c(C)nc3c2)cn1 (stereo not shown)
-- reply < 10%
